Target: T1, FGFR3 (wild type) on cells (human, UniProt P22607 23-806)
T1 construct: also called FDCP-FR3; FDCP-FGFR3
T1 sequence (P22607 23-806 limits assumed): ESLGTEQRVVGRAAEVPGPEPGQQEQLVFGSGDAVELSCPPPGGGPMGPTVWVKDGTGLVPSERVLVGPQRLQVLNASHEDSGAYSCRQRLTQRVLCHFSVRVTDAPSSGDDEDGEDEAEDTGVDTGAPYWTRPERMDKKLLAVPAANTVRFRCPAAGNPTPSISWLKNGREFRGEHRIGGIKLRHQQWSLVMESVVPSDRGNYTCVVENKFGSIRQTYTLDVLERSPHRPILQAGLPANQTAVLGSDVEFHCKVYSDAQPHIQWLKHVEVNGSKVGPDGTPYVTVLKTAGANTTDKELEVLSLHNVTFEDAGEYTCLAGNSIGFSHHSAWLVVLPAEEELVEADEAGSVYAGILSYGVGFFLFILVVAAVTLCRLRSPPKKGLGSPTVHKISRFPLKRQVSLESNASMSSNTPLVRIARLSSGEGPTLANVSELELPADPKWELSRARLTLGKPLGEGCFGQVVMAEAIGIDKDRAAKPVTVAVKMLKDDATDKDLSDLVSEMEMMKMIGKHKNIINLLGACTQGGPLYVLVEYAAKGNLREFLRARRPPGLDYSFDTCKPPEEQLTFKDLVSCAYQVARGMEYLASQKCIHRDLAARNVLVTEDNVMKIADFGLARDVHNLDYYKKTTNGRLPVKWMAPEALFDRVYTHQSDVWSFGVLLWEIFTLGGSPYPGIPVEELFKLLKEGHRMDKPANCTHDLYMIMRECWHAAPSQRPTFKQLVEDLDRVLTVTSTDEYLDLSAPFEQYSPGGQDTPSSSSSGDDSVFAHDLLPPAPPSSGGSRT
Assay: FACS
readoutKind: Kd (nM)

[[record]]
binder = "MSPRO12 (Fab, V domains shown, HuCAL Fab, framework VH2_L3) VH: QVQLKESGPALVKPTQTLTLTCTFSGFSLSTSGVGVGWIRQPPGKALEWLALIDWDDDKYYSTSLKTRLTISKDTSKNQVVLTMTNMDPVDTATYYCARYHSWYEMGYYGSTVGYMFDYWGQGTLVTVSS VL: DIELTQPPSVSVAPGQTARISCSGDALGDKYASWYQQKPGQAPVLVIYDDSDRPSGIPERFSGSNSGNTATLTISGTQAEDEADYYCQSYDFDFAVFGGGTKLTVLG"
qualifieroperator = "="
reportedresult = 6.5

[[record]]
binder = "MSPRO26 (Fab, V domains shown) VH: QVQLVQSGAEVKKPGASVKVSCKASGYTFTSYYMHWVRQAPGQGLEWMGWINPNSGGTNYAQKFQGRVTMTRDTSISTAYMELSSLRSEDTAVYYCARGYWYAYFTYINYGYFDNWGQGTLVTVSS VL: DIALTQPASVSGSPGQSITISCTGTSSDVGGYNYVSWYQQHPGKAPKLMIYDVSNRPSGVSNRFSGSKSGNTASLTISGLQAEDEADYYCQSYDNNSDVVFGGGTKLTVLG"
qualifieroperator = "="
reportedresult = 1.4

[[record]]
binder = "MSPRO29 (Fab, V domains shown) VH: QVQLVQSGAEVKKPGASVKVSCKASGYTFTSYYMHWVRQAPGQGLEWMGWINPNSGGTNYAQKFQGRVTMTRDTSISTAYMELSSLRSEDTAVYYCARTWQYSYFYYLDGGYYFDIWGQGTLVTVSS VL: DIVLTQSPATLSLSPGERATLSCRASQSVSSSYLAWYQQKPGQAPRLLIYGASSRATGVPARFSGSGSGTDFTLTISSLEPEDFATYYCQQTNNAPVTFGQGTKVEIKR"
qualifieroperator = "<"
reportedresult = 1

